Source: PubChem BioAssay AID1159580

Some compounds, each annotated with its measured normalized growth.
procedure_details: chemical genetic growth profiling, strain panel (AID 1159580);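 note: tested at 20 µM; growth read once vehicle control cultures reached saturation at 30 °C; 1 = growth at the plate median or of vehicle wells; lower values mean less growth of the strain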
test_conditions: S. cerevisiae deletion strains, growth OD, locus YMR307W, strain GAS1, stronger effect = lower value
Among all 5,500 compounds or so, about 2,000 (36%) were called active. Another 18% or so got no clear call; they are omitted. Some of the results follow.
quantity_name: normalized growth

> print(dat)
                                   compound  observed.value
1                      COc1cc(CC(=O)O)ccc1O            1.01
2   CC(C)(C)S(=O)(=O)/C(C#N)=C/c1ccc(F)cc1F            1.01
3  Cc1ccc(C)n1-c1ccc(C(=O)NNS(=O)(=O)c2ccc(Cl)cc2)cc1           0.979
4                CN(C)CCN(Cc1cccs1)c1ccccn1            1.02
5           COc1ccc(CN(CCN(C)C)c2ccccn2)cc1            1.01
6  CCC[C@H](N[C@@H](C)C(=O)N1[C@H](C(=O)O)C[C@@H]2CCCC[C@@H]21)C(=O)OCC           0.976
7  C=C1C2CC[C@@]3(C)[C@H](c4ccoc4)OC(=O)C[C@]13O[C@H]1CC(=O)C(C)(C)[C@H](C(OC(C)=O)C(=O)OC)[C@@]21C (stereo partly drawn)           0.996
8  CC(=O)c1c(O)c(C)c(O)c(Cc2c(O)c3c(c(C(=O)/C=C/c4ccccc4)c2O)OC(C)(C)C=C3)c1O           0.877

---

procedure_details: chemical genetic growth profiling, strain panel (AID 1159580)
test_conditions: S. cerevisiae deletion strains, growth OD, locus YEL061C, strain CIN8
Screen size: about 5,500 compounds; about 2,000 (36%) were called active. Another 18% or so got no clear call; they are omitted. Rule as the data show it: active = normalized growth mostly below about 0.91 (no sharp cut-off); inconclusive = no clear call, values can overlap the other calls; inactive = mostly above about 0.92. The list shows a part of the results.
Outcomes: active, inactive

> print(dat)
                        chemical.smiles  label.class
1           S=c1nc2[nH]c3ccccc3c2n[nH]1     inactive
2       CCCCNC(=O)NS(=O)(=O)c1ccc(C)cc1     inactive
3             O=C(O)c1cc2cc(F)ccc2[nH]1     inactive
4  Cc1ccc(S(=O)(=O)NC(=O)NN2CCCCCC2)cc1     inactive
5        COc1ccccc1-c1coc2cc(O)ccc2c1=O     inactive
6               Cc1[nH]c2ccccc2c1CN(C)C     inactive
7      C/C(=N/O)c1sc2nc(C(F)(F)F)nn2c1C     inactive
8        O=C(NNC(=S)Nc1cccc(Cl)c1)C1CC1       active

---

procedure_details: chemical genetic growth profiling, strain panel (AID 1159580)
test_conditions: S. cerevisiae deletion strains, growth OD, locus YJR043C, strain POL32, stronger effect = lower value
About 2,000 (36%) of roughly 5,500 compounds were called active. About 18% were inconclusive and are not listed. This is one part of the list.
Some molecules, each annotated with its measured normalized growth.
quantity_name: normalized growth

> print(dat)
                                   molecule    observed.value
1    Clc1ccc(C(c2ccc(Cl)cc2)C(Cl)(Cl)Cl)cc1  0.996 (inactive)
2                 O=C(O)/C=C/c1ccc(O)c(O)c1   1.01 (inactive)
3  O=[N+]([O-])c1ccc(OCCO)c([N+](=O)[O-])c1   1.01 (inactive)
4  OC1(c2ccc(F)cc2)Cc2ccccc2C2=NCCN21 (centres undefined)      1 (inactive)
5  C[C@]12CCC(=O)C=C1C=CC1C2CC[C@@]2(C)C1CC[C@@]2(O)CCC(=O)O (some centres undefined)  0.974 (inactive)
6  CCCCCCC(C)OC(=O)COc1cc(Cl)c(Cl)cc1Cl (centres undefined)  0.988 (inactive)
7                          CCc1nnc(N=CNO)s1   0.97 (inactive)
8  COc1c(N2CCNC(C)C2)c(F)cc2c(=O)c(C(=O)O)cn(C3CC3)c12 (centres undefined)  0.911 (inactive)
9    CCN(CC)Cc1ccc(Nc2ccnc3cc(Cl)ccc23)cc1O  0.996 (inactive)

---

procedure_details: chemical genetic growth profiling, strain panel (AID 1159580);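 note: tested at 20 µM; growth read once vehicle control cultures reached saturation at 30 °C; 1 = growth at the plate median or of vehicle wells; lower values mean less growth of the strain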
test_conditions: S. cerevisiae deletion strains, growth OD, locus YLR085C, strain ARP6, stronger effect = lower value
The whole screen tested about 5,500 compounds, of which about 2,000 (36%) were called active. About 18% were inconclusive and are not listed. Some of the results follow.
quantity_name: normalized growth

> print(dat)
                                    compound      quantity.name    observed.value
 1  COC(=O)c1ccc(Cl)cc1NS(=O)(=O)c1ccc(OC)c(OC)c1  normalized growth   1.01 (inactive)
 2         O=C(NNC(=S)Nc1cccc(Cl)c1)c1ccncc1  normalized growth  0.989 (inactive)
 3  O=C1c2ccccc2C(=O)C1(c1ccccc1)[N+](=O)[O-]  normalized growth  0.975 (inactive)
 4    COc1c(Br)cc([N+](=O)[O-])c(OC)c1C(N)=O  normalized growth   1.02 (inactive)
 5                     Cc1nc(N)ncc1Sc1ccccc1  normalized growth   1.01 (inactive)
 6  O=C(CC1NCCN(Cc2ccccc2)C1=O)Nc1ccc(Cl)cc1 (stereo unspecified)  normalized growth   1.01 (inactive)
 7  COc1ccc(/C=C2\CC/C(=C\c3ccc(OC)c(OC)c3)C2=O)cc1OC  normalized growth  0.989 (inactive)
 8          COC(=O)CCCCCCCC(=O)Nc1ccc(Cl)cc1  normalized growth   1.01 (inactive)
 9                     S=C1NCN(CCN2CCCC2)CN1  normalized growth   0.98 (inactive)
10                   CSc1nc(N)n(-c2ccccc2)n1  normalized growth  0.995 (inactive)
11                Cc1nn(C)c(C)c1[N+](=O)[O-]  normalized growth   1.02 (inactive)

---

procedure_details: chemical genetic growth profiling, strain panel (AID 1159580);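 note: tested at 20 µM; growth read once vehicle control cultures reached saturation at 30 °C; 1 = growth at the plate median or of vehicle wells; lower values mean less growth of the strain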
test_conditions: S. cerevisiae deletion strains, growth OD, locus YKR026C, strain gcn3, stronger effect = lower value
Hit rate of the full screen: of about 5,500 compounds, about 2,000 (36%) were called active. Roughly 18% stayed inconclusive and do not appear here. Some of the results follow.
quantity_name: normalized growth

compound	observed_value
CC[C@]1(O)CC2CN(CCc3c([nH]c4ccccc34)[C@@](C(=O)OC)(c3cc4c(cc3OC)N(C)[C@H]3[C@@](O)(C(=O)OC)[C@H](OC(C)=O)[C@]5(CC)C=CCN6CC[C@]43[C@@H]65)C2)C1 (some centres not stated)	0.975 (inactive)
COc1ccc(C(=O)CC(=O)O)c2c1C=CC(C)(C)O2	0.995 (inactive)
CC(=O)Oc1cc(OC(C)=O)c2c(c1)O[C@H](c1ccc(OC(C)=O)c(OC(C)=O)c1)[C@H](OC(C)=O)C2	0.994 (inactive)
CC1(O)CC2C(CC1O)C2(C)C (configuration not stated)	0.994 (inactive)
O=C(Oc1cc(O)cc2c1C[C@@H](OC(=O)c1cc(O)c(O)c(O)c1)[C@@H](c1cc(O)c(O)c(O)c1)O2)c1cc(O)c(O)c(O)c1	0.984 (inactive)
Oc1cc(O)c2c(c1)O[C@H](c1ccc(O)c(O)c1)[C@H](O)C2	1 (inactive)
C=CCc1ccc(OC)cc1	1.01 (inactive)

---

procedure_details: chemical genetic growth profiling, strain panel (AID 1159580);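 note: tested at 20 µM; growth read once vehicle control cultures reached saturation at 30 °C; 1 = growth at the plate median or of vehicle wells; lower values mean less growth of the strain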
test_conditions: S. cerevisiae deletion strains, growth OD, locus YDR388W, stronger effect = lower value
Screen size: about 5,500 compounds; about 2,000 (36%) were called active. Roughly 18% stayed inconclusive and do not appear here. The list shows a part of the results.

molecule	normalized growth
Oc1cc(O)c2c(c1)OC(c1cc(O)c(O)c(O)c1)C(O)C2c1c(O)cc(O)c2c1OC(c1cc(O)c(O)c(O)c1)C(O)C2c1c(O)cc(O)c2c1OC(c1cc(O)c(O)c(O)c1)C(O)C2 (stereo unspecified)	1
C[C@]12CCC(=O)C=C1C=CC1C2CC[C@@]2(C)C1CC[C@@]2(O)CCC(=O)O (stereo partly specified)	0.988
OCC(O)CN1CCN(c2ccccc2)CC1 (stereo unspecified)	0.991
C/C=C(\C)C(=O)O[C@H]1C[C@@H](OC(C)=O)[C@@]2(C(=O)OC)CO[C@@H]3C2[C@]12CO[C@](O)(C(=O)OC)[C@H]2[C@](C)(C12O[C@@]1(C)[C@H]1C[C@@H]2OC2OC=C[C@@]21O)[C@@H]3O (stereo partly specified)	0.985
Cc1[nH]c2ccccc2c1CN(C)C	0.993
Oc1cc(O)c2c(c1)O[C@H](c1cc(O)c(O)c(O)c1)[C@H](O)C2	0.988
